Hello, the source for this data is patent US9290503B2, in case you need it.

- Test system: KMS11
- ASSAY_NAME: Cell proliferation assay, MTT, KMS11
- Format: cell-based
- STATED_CONDITIONS: Homo sapiens, KMS-11, 72 h, standard 3-day proliferation assay
RECORDED_METRIC: IC50

Task item: # IC50 lookup, item Cc1ccc(OCC(=O)CNc2cc[nH]c(=O)c2C2Nc3cc4c(cc3N2)C(=O)N(C2CCN(CCS(C)(=O)=O)CC2)C4)c(C)c1 (centres unmarked)
Reply: 1 to 5 µM

Task item: Would you mind telling me what IC50 value was observed for `CC(=O)CCN1CCC(N2Cc3cc4nc(-c5c(NCC(=O)COc6ccc(C)cc6C)cc[nH]c5=O)[nH]c4cc3C2=O)CC1` ?
Reply: 5 to 20 µM
